- System tested: serotonin-reuptake sites (Rattus norvegicus, UniProt P31652)
- Construct: The membranes are prepared from rat frontal cortex
- Sequence (P31652 whole entry): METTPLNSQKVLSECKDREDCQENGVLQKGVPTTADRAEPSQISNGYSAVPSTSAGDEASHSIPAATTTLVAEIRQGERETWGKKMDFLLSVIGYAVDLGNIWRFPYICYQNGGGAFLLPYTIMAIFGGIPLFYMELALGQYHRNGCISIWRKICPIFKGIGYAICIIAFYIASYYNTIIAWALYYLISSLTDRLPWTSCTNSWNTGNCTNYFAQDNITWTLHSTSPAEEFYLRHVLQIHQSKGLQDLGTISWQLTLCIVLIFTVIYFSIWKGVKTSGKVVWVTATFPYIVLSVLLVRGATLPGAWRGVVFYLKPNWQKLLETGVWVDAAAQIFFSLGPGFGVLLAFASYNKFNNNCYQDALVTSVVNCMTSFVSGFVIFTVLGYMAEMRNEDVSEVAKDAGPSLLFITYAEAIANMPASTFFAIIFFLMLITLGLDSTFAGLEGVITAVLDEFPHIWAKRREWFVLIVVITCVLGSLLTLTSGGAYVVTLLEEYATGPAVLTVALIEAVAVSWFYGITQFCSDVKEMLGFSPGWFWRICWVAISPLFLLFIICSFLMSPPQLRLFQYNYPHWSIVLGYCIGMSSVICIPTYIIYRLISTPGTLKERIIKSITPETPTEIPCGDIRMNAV
- Method notes: Determination of affinity for serotonin-reuptake sites in the rat ([3H]-paroxetine competition)
- Test context: rat frontal cortex membranes, 0.25 nM [3H]-paroxetine, 2 hours at 25° C.
Readout kind: pKi
Give bare numbers, as −log10 of the molar value.

Ask | Query pKi for Cl.N#Cc1ccc2[nH]cc(CC3CCN(CCc4cc5c(cc4Cl)NC(=O)C5)C3)c2c1 (stereo not shown) [Example 6, Hydrochloride]
Reply | 9.40
